Target: proMMP9(67-444;ΔFnII) (SEQ ID NO:5) (Homo sapiens, UniProt P14780, DEL216-390)
Construct: start methionine (N)
Sequence (P14780 with tags, fused parts or gaps DEL216-390): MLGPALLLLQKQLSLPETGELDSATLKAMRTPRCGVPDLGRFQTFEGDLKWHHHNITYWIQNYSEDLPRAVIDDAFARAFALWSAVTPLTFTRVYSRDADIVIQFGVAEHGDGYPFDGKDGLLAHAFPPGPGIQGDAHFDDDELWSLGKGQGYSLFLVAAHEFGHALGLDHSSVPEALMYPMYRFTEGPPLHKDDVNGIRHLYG
Assay: ThermoFluor binding assay with proMMP9(67-444;ΔFnII)
quantity.name: pKd
# pKd is unitless: minus log10 of the molar concentration; print number only

Q: Can you share its pKd? I mean this compound: CCOc1ccc(C#N)cc1Nc1nc(-c2cnn(C)c2)cs1
Ans: 4.85

Q: Returns the measured pKd for the input compound. Input: Cc1nc(C)n(C)c1-c1csc(Nc2cc(S(N)(=O)=O)ccc2OC(C)C)n1
Ans: 5.07

Q: If you can, please state the reported pKd value of Cc1nc(C)n(C)c1-c1csc(Nc2cc(C(N)=O)ccc2OC(C)C)n1 .
Ans: 4.38

Q: // pKd lookup, key: CCOc1ccc(C#N)cc1Nc1nc(-n2cc(C)nc2C)cs1
Ans: 4.44

Q: Please report the recorded pKd for Cc1nc(C)c(-c2csc(Nc3cc(C(N)=O)ccc3OC(C)C)n2)o1 .
Ans: 5.14

Q: Find the recorded pKd belonging to Cc1nc(-c2csc(Nc3cc(S(N)(=O)=O)ccc3OC(C)C)n2)c(C)n1C and report it.
Ans: 4.48

----------
Target: full-length proMMP9(1-707) (SEQ ID NO:1) (Homo sapiens, UniProt P14780, R574P)
Construct: E. coli (MMP3)
Assay: proMMP9/MMP3 P126 Activation Assay
Settings: 20 nM proMMP9, 20 nM MMP3, 80 min 37° C.
quantity.name: pIC50
Conceptually, pIC50 converts a concentration in mol/L into minus its log10.

Q: State the recorded pIC50 for this entry: Cc1nc(-c2csc(Nc3cc(C(N)=O)ccc3OC(C)C)n2)c(C)[nH]1 [Example 3]
Ans: 6.10

Q: Item Cc1nc(C)c(-c2csc(Nc3cc(C(N)=O)ccc3OC(C)C)n2)o1 [Example 6] has what recorded pIC50?
Ans: 6.57

Q: Need pIC50, item Cc1nc(C)n(C)c1-c1csc(Nc2cc(C(N)=O)ccc2OC(C)C)n1 [Example 7]
Ans: 5.72

Q: Given the entry Cc1nc(C)n(C)c1-c1csc(Nc2cc(S(N)(=O)=O)ccc2OC(C)C)n1 [Example 1] , report its measured pIC50.
Ans: 5.64

----------
Target: proMMP9(20-445;ΔFnII) (SEQ ID NO:6) (Homo sapiens, UniProt P14780, DEL216-390)
Construct: start methionine (N)
Test: ThermoFluor binding assay with proMMP9(20-445;ΔFnII)
pKd: −log10 of the molar value.
Each entry gets criterion not met if its pKd stays under 5, and criterion met if its pKd is 5 or above.

Q: Quick check: does CCOc1ccc(C#N)cc1Nc1nc(-n2cc(C)nc2C)cs1 [Example 4] have pKd greater than or equal to 5?
Ans: criterion not met

Q: Exam item: decide whether the reported pKd for Cc1nc(C)n(C)c1-c1csc(Nc2cc(C(N)=O)ccc2OC(C)C)n1 [Example 7] is at least 5.
Ans: criterion met

Q: API: above_or_equal(metric=pKd, cutoff=5) for item Cc1nc(-c2csc(Nc3cc(C(N)=O)ccc3OC(C)C)n2)c(C)[nH]1 [Example 3]
Ans: criterion met

Q: Is pKd for Cc1nc(C)c(-c2csc(Nc3cc(C(N)=O)ccc3OC(C)C)n2)o1 [Example 6] at or above 5?
Ans: criterion met

Q: Check the entry Cc1nc(C)n(C)c1-c1csc(Nc2cc(S(N)(=O)=O)ccc2OC(C)C)n1 [Example 1] : does pKd equal or exceed 5?
Ans: criterion met

----------
Give Kd for every item shown.
Biological target: proMMP13(1-268) (SEQ ID NO:7) (Homo sapiens, UniProt P45452)
Experiment: ThermoFluor binding assay with proMMP13(1-268)
Parameters: 6x-histidine (C); made in house

Q: May I ask what Kd has been recorded for Cc1nc(C)n(C)c1-c1csc(Nc2cc(S(N)(=O)=O)ccc2OC(C)C)n1 ?
Ans: 1.6 µM

Q: Fill in: Kd of Cc1nc(-c2csc(Nc3cc(C(N)=O)ccc3OC(C)C)n2)c(C)[nH]1 is ___
Ans: 5.1 µM

Q: Any idea what Kd was measured for Cc1nc(C)c(-c2csc(Nc3cc(C(N)=O)ccc3OC(C)C)n2)o1 ?
Ans: 6.1 µM

Q: Which Kd reading was recorded for the compound Cc1nc(-c2csc(Nc3cc(S(N)(=O)=O)ccc3OC(C)C)n2)c(C)n1C ?
Ans: 10 µM

Q: Field request: Kd | item: CCOc1ccc(C#N)cc1Nc1nc(-n2cc(C)nc2C)cs1
Ans: > 95 µM

Q: Field request: Kd | item: CCOc1ccc(C#N)cc1Nc1nc(-c2cnn(C)c2)cs1
Ans: 17 µM

meta.source: patent US20120129897A1
